PROTOCOL_NOTES: Drug metabolism in human A549 cells assessed as nitric oxide release at 4 uM measured up to 24 hrs
Type: ADME, cell-based
SETUP_CONDITIONS: a549, 24 h
ASSAY_METRIC: Drug metabolism

>>> value_observed("CC1=C(O)C(=O)C=C2C1=CC=C1[C@@]2(C)CC[C@@]2(C)[C@@H]3C[C@](C)(C(=O)OCC(C)COc4no[n+]([O-])c4S(=O)(=O)c4ccccc4)CC[C@]3(C)CC[C@]12C (stereo partly specified)")
"Metabolite_Detected"
>>> value_observed("CC1=C(O)C(=O)C=C2C1=CC=C1[C@@]2(C)CC[C@@]2(C)[C@@H]3C[C@](C)(C(=O)NCCCOc4no[n+]([O-])c4S(=O)(=O)c4ccccc4)CC[C@]3(C)CC[C@]12C")
"Metabolite_Detected"
>>> value_observed("CC1=C(O)C(=O)C=C2C1=CC=C1[C@@]2(C)CC[C@@]2(C)[C@@H]3C[C@](C)(C(=O)OCCOc4no[n+]([O-])c4S(=O)(=O)c4ccccc4)CC[C@]3(C)CC[C@]12C")
"Metabolite_Detected"
>>> value_observed("CC1=C(O)C(=O)C=C2C1=CC=C1[C@@]2(C)CC[C@@]2(C)[C@@H]3C[C@](C)(C(=O)OCCCO[N+](=O)[O-])CC[C@]3(C)CC[C@]12C")
"Metabolite_Detected"
>>> value_observed("CC1=C(O)C(=O)C=C2C1=CC=C1[C@@]2(C)CC[C@@]2(C)[C@@H]3C[C@](C)(C(=O)NCCOc4no[n+]([O-])c4S(=O)(=O)c4ccccc4)CC[C@]3(C)CC[C@]12C")
"Metabolite_Detected"
>>> value_observed("CC1=C(O)C(=O)C=C2C1=CC=C1[C@@]2(C)CC[C@@]2(C)[C@@H]3C[C@](C)(C(=O)OCCCCO[N+](=O)[O-])CC[C@]3(C)CC[C@]12C")
"Metabolite_Detected"

====

Test system: HOS
PROTOCOL_NOTES: Antiproliferative activity against human HOS cells after 48 hrs by MTT assay
Assay type: functional, cell-based
Catalogue of IC50 values
ASSAY_METRIC: IC50 (nM)

>>> value_observed("CC1=C(O)C(=O)C=C2C1=CC=C1[C@@]2(C)CC[C@@]2(C)[C@@H]3C[C@](C)(C(=O)OCCOc4no[n+]([O-])c4S(=O)(=O)c4ccccc4)CC[C@]3(C)CC[C@]12C")
1690
>>> value_observed("CC1=C(O)C(=O)C=C2C1=CC=C1[C@@]2(C)CC[C@@]2(C)[C@@H]3C[C@](C)(C(=O)OCCCOc4no[n+]([O-])c4S(=O)(=O)c4ccccc4)CC[C@]3(C)CC[C@]12C")
1870
>>> value_observed("CC1=C(O)C(=O)C=C2C1=CC=C1[C@@]2(C)CC[C@@]2(C)[C@@H]3C[C@](C)(C(=O)NCCCOc4no[n+]([O-])c4S(=O)(=O)c4ccccc4)CC[C@]3(C)CC[C@]12C")
510
>>> value_observed("CC1=C(O)C(=O)C=C2C1=CC=C1[C@@]2(C)CC[C@@]2(C)[C@@H]3C[C@](C)(C(=O)OCCCCO[N+](=O)[O-])CC[C@]3(C)CC[C@]12C")
2430

====

System: HepG2
PROTOCOL_NOTES: Antiproliferative activity against human HepG2 cells after 48 hrs by MTT assay
Type: functional, cell-based
SETUP_CONDITIONS: HepG2, 48 h
pIC50: −log10 of the molar value.
ASSAY_METRIC: pIC50

>>> value_observed("CC1=C(O)C(=O)C=C2C1=CC=C1[C@@]2(C)CC[C@@]2(C)[C@@H]3C[C@](C)(C(=O)OCC(C)COc4no[n+]([O-])c4S(=O)(=O)c4ccccc4)CC[C@]3(C)CC[C@]12C (some centres not stated)")
5.62
>>> value_observed("CC1=C(O)C(=O)C=C2C1=CC=C1[C@@]2(C)CC[C@@]2(C)[C@@H]3C[C@](C)(C(=O)OCCCCCCO[N+](=O)[O-])CC[C@]3(C)CC[C@]12C")
5.33
>>> value_observed("CC1=C(O)C(=O)C=C2C1=CC=C1[C@@]2(C)CC[C@@]2(C)[C@@H]3C[C@](C)(C(=O)OCCCCCO[N+](=O)[O-])CC[C@]3(C)CC[C@]12C")
5.47
>>> value_observed("CC1=C(O)C(=O)C=C2C1=CC=C1[C@@]2(C)CC[C@@]2(C)[C@@H]3C[C@](C)(C(=O)O)CC[C@]3(C)CC[C@]12C")
5.79
>>> value_observed("CC1=C(O)C(=O)C=C2C1=CC=C1[C@@]2(C)CC[C@@]2(C)[C@@H]3C[C@](C)(C(=O)OCCCCO[N+](=O)[O-])CC[C@]3(C)CC[C@]12C")
5.22
>>> value_observed("CC1=C(O)C(=O)C=C2C1=CC=C1[C@@]2(C)CC[C@@]2(C)[C@@H]3C[C@](C)(C(=O)OCCCCOc4no[n+]([O-])c4S(=O)(=O)c4ccccc4)CC[C@]3(C)CC[C@]12C")
5.45
>>> value_observed("CC1=C(O)C(=O)C=C2C1=CC=C1[C@@]2(C)CC[C@@]2(C)[C@@H]3C[C@](C)(C(=O)OCCCOc4no[n+]([O-])c4S(=O)(=O)c4ccccc4)CC[C@]3(C)CC[C@]12C")
5.34
>>> value_observed("CC1=C(O)C(=O)C=C2C1=CC=C1[C@@]2(C)CC[C@@]2(C)[C@@H]3C[C@](C)(C(=O)OCCCO[N+](=O)[O-])CC[C@]3(C)CC[C@]12C")
5.73
>>> value_observed("CC1=C(O)C(=O)C=C2C1=CC=C1[C@@]2(C)CC[C@@]2(C)[C@@H]3C[C@](C)(C(=O)OCC(C)Oc4no[n+]([O-])c4S(=O)(=O)c4ccccc4)CC[C@]3(C)CC[C@]12C (some centres not stated)")
5.62
>>> value_observed("CC1=C(O)C(=O)C=C2C1=CC=C1[C@@]2(C)CC[C@@]2(C)[C@@H]3C[C@](C)(C(=O)NCCCOc4no[n+]([O-])c4S(=O)(=O)c4ccccc4)CC[C@]3(C)CC[C@]12C")
5.85
>>> value_observed("CC1=C(O)C(=O)C=C2C1=CC=C1[C@@]2(C)CC[C@@]2(C)[C@@H]3C[C@](C)(C(=O)NCCOc4no[n+]([O-])c4S(=O)(=O)c4ccccc4)CC[C@]3(C)CC[C@]12C")
5.42
>>> value_observed("CC1=C(O)C(=O)C=C2C1=CC=C1[C@@]2(C)CC[C@@]2(C)[C@@H]3C[C@](C)(C(=O)OCCOc4no[n+]([O-])c4S(=O)(=O)c4ccccc4)CC[C@]3(C)CC[C@]12C")
5.32

====

Tested on: HOS
PROTOCOL_NOTES: Antiproliferative activity against human HOS cells after 48 hrs by MTT assay
Format: functional, cell-based
Criterion: IC50 strictly less than 2000 nM. Met: Criterion met. Not met: Criterion not met.

>>> class("CC1=C(O)C(=O)C=C2C1=CC=C1[C@@]2(C)CC[C@@]2(C)[C@@H]3C[C@](C)(C(=O)OCCCCOc4no[n+]([O-])c4S(=O)(=O)c4ccccc4)CC[C@]3(C)CC[C@]12C")
"Criterion not met"
>>> class("CC1=C(O)C(=O)C=C2C1=CC=C1[C@@]2(C)CC[C@@]2(C)[C@@H]3C[C@](C)(C(=O)OCCCO[N+](=O)[O-])CC[C@]3(C)CC[C@]12C")
"Criterion met"
>>> class("CC1=C(O)C(=O)C=C2C1=CC=C1[C@@]2(C)CC[C@@]2(C)[C@@H]3C[C@](C)(C(=O)O)CC[C@]3(C)CC[C@]12C")
"Criterion met"
>>> class("CC1=C(O)C(=O)C=C2C1=CC=C1[C@@]2(C)CC[C@@]2(C)[C@@H]3C[C@](C)(C(=O)OCC(C)COc4no[n+]([O-])c4S(=O)(=O)c4ccccc4)CC[C@]3(C)CC[C@]12C (stereo not given in full)")
"Criterion met"
>>> class("CC1=C(O)C(=O)C=C2C1=CC=C1[C@@]2(C)CC[C@@]2(C)[C@@H]3C[C@](C)(C(=O)OCC(C)Oc4no[n+]([O-])c4S(=O)(=O)c4ccccc4)CC[C@]3(C)CC[C@]12C (stereo not given in full)")
"Criterion not met"

====

Tested on: HOS
PROTOCOL_NOTES: Antiproliferative activity against human HOS cells after 48 hrs by MTT assay
Format: functional, cell-based
ASSAY_METRIC: IC50 (nM)

>>> value_observed("CC1=C(O)C(=O)C=C2C1=CC=C1[C@@]2(C)CC[C@@]2(C)[C@@H]3C[C@](C)(C(=O)OCCCCCO[N+](=O)[O-])CC[C@]3(C)CC[C@]12C")
2900
>>> value_observed("CC1=C(O)C(=O)C=C2C1=CC=C1[C@@]2(C)CC[C@@]2(C)[C@@H]3C[C@](C)(C(=O)NCCOc4no[n+]([O-])c4S(=O)(=O)c4ccccc4)CC[C@]3(C)CC[C@]12C")
1470
>>> value_observed("CC1=C(O)C(=O)C=C2C1=CC=C1[C@@]2(C)CC[C@@]2(C)[C@@H]3C[C@](C)(C(=O)OCCCCCCO[N+](=O)[O-])CC[C@]3(C)CC[C@]12C")
3360
